assay: Single dose PK study in male Wister-Han rats; type: in vivo; conditions: male, Wister-Han, rat, plasma, po, 5 mg/kg, 5 mg/kg oral dosing of active form, 7 hrs (footnote), read-out: Mean plasma concentration (nM), 7 hrs (row 8*)
MEASUREMENT NAME: concentration at 7 h (nM)

[[record]]
compound = "CC[S@@](=N)(=O)c1nc(N)c2[nH]c(=O)n(Cc3ccc(C)cc3)c2n1 (single isomer, unassigned) [Compound 43e-A]"
unit_tag = "nM"
readout_number = 6.31

[[record]]
compound = "CC[S@@](=N)(=O)c1nc(N)c2[nH]c(=O)n(Cc3ccc(Cl)cc3)c2n1 (single isomer, unassigned) [Compound 41c-B]"
unit_tag = "nM"
readout_number = 1.21

[[record]]
compound = "CC[S@](=N)(=O)c1nc(N)c2[nH]c(=O)n(Cc3ccc(Cl)cc3)c2n1 (single isomer, unassigned) [Compound 41c-A]"
unit_tag = "nM"
readout_number = 18

